- tested target: Human recombinant Histone Deacetylase 8 (HDAC8) (Homo sapiens (Human))
- Sequence (Q9BY41 whole entry): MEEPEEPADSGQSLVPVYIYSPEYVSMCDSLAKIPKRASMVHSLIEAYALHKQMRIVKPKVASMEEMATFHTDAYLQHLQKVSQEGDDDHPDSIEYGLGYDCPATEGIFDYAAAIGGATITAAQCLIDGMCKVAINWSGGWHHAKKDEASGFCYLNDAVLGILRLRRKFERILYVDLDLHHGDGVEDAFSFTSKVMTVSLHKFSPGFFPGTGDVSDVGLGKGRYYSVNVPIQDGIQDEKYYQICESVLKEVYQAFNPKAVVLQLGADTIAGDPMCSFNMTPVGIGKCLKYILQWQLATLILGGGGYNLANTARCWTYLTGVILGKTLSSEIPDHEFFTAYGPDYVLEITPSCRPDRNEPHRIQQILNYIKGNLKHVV
- experimental protocol: HDAC8 Enzymatic Assay (HDAC-Glo I/II luminescence)
- Assay type: biochemical
- conditions used: class symbols, Table 14; read-out: HDAC8 IC50
Consider the following compounds and their measured IC50 readings.

Consider the reported IC50 for these compounds:
{"columns": ["compound", "assay readout", "result"],
 "data": [
  ["Cn1cc(-c2cnc3c(cnn3C(Cc3ccccc3)C(=O)NO)c2)cn1 (centres unmarked) [Compound I-0120]", "IC50", "200 to 500 nM"],
  ["O=C(NO)C(Cc1ccccc1)n1cc2cccc(CN3CCC(C(F)(F)F)CC3)c2n1 (centres unmarked) [Compound I-0191]", "IC50", "> 500 nM"],
  ["O=C(NO)C(Cc1ccccc1)n1cc2cccc(C#CC3CC3)c2n1 (centres unmarked) [Compound I-0082]", "IC50", "200 to 500 nM"],
  ["CN(C)C(=O)c1ccc(-c2cccc3cn(C(Cc4ccccc4)C(=O)NO)nc23)cc1 (centres unmarked) [Compound I-0110]", "IC50", "≤ 50 nM"],
  ["O=C(NO)C(Cc1ccccc1)n1cc2cccc(C(=O)N3CCC4(CCOCC4)CC3)c2n1 (centres unmarked) [Compound I-0175]", "IC50", "> 500 nM"]
]}

Inquiry: Requested read-out: IC50. Entry: O=C(NO)C(Cc1ccccc1)n1ncc2c(Cl)nccc21 (centres unmarked) [Compound I-0055]
Reply text: 200 to 500 nM

Inquiry: // same read-out, input: Cc1ccc2c(cnn2C(Cc2ccccc2)C(=O)NO)c1 (centres unmarked) [Compound I-0016]
Reply text: 50 to 200 nM

Inquiry: // same read-out, input: O=C(NO)C(Cc1ccccc1)n1cc2cccc(C(=O)N3CCC4(CC3)COC4)c2n1 (centres unmarked) [Compound I-0174]
Reply text: > 500 nM

Inquiry: // same read-out, input: O=C(NO)C(Cc1ccccc1)n1cc2cc(Br)ccc2n1 (centres unmarked) [Compound I-0024]
Reply text: > 500 nM

Inquiry: // same read-out, input: N#Cc1ccc(-c2cc3cnn(C(Cc4ccccc4)C(=O)NO)c3cn2)cc1 (centres unmarked) [Compound I-0088]
Reply text: > 500 nM

Inquiry: // same read-out, input: Cn1nccc1-c1cnc2c(cnn2C(Cc2ccccc2)C(=O)NO)c1 (centres unmarked) [Compound I-0119]
Reply text: 200 to 500 nM

Inquiry: // same read-out, input: O=C(NO)C(Cc1ccccc1)n1ncc2cc(-c3ccccc3)ncc21 (centres unmarked) [Compound I-0086]
Reply text: > 500 nM
